# system name: Protein cereblon/Interleukin-1 receptor-associated kinase 4 (Homo sapiens, UniProt Q9NWZ3+Q96SW2)
# Sequence (Q9NWZ3 whole entry): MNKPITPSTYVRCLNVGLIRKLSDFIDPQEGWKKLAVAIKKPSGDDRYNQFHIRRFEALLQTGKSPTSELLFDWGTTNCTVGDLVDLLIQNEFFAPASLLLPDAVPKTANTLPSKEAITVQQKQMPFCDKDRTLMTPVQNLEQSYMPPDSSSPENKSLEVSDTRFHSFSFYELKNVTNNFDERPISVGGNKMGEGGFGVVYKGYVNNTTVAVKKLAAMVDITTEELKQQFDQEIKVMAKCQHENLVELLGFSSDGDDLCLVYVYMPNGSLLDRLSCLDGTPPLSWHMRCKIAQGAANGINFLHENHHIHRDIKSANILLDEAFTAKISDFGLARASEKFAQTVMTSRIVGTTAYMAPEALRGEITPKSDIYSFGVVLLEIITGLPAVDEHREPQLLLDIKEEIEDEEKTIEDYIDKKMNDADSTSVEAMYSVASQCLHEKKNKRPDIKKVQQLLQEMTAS
# Sequence (Q96SW2 whole entry): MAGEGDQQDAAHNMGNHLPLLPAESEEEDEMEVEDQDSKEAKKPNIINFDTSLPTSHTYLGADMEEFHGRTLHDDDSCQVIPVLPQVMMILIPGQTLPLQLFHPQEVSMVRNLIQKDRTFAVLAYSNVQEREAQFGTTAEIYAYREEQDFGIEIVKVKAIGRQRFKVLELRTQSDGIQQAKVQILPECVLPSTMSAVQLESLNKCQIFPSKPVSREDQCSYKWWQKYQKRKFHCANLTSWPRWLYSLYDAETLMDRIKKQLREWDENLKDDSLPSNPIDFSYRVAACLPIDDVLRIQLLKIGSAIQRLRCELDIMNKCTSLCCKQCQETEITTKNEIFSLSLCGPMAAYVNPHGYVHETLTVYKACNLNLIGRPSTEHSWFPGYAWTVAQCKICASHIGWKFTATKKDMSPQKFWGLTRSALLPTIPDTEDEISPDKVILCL
# assay remarks: PROTAC activity at CRBN/IRAK4 in human THP-1 cells assessed as induction of IRAK4 degradation incubated for 24 hrs by HiBiT lytic reagent based analysis
# Format: cell-based
reported metric: DC50 (nM)

Known results for compounds:
| compound | DC50 (nM) |
| --- | --- |
| Cn1c(=O)n(C2CCC(=O)NC2=O)c2cccc(C#CCO[C@H]3CC[C@H](CN4CCC5(CC4)Cc4cc(NC(=O)c6cnn7cc(C#N)cnc67)c(N6CCC(CO)CC6)cc4O5)CC3)c21 (stereo partly specified) | 2.81 |
| Cn1c(=O)n(C2CCC(=O)NC2=O)c2cccc(CN3CCC(CCN4CCC5(CC4)Cc4cc(NC(=O)c6cnn7cccnc67)c(N6CCC(CO)CC6)cc4O5)CC3)c21 (stereo unspecified) | 1.09 |
| Cn1c(=O)n(C2CCC(=O)NC2=O)c2cccc(C#CCOC3CCN(CCN4CCC5(CC4)Cc4cc(NC(=O)c6cnn7cccnc67)c(N6CCC(CO)CC6)cc4O5)CC3)c21 (stereo unspecified) | 2.18 |
| Cn1c(=O)n(C2CCC(=O)NC2=O)c2cccc(C#CCO[C@H]3CC[C@H](CN4CCC5(CC4)Cc4cc(NC(=O)c6cnn7cccnc67)c(N6CCC(CO)CC6)cc4C5)CC3)c21 (stereo partly specified) | 2.77 |

[P] CN(CCCO)c1cc2c(cc1NC(=O)c1cnn3cccnc13)CC1(CCN(C[C@H]3CC[C@H](OCC#Cc4cccc5c4n(C)c(=O)n5C4CCC(=O)NC4=O)CC3)CC1)O2 (stereo partly specified)
[Q] Cn1c(=O)n(C2CCC(=O)NC2=O)c2cccc(C#CCO[C@H]3CC[C@H](CN4CCC5(CC4)Cc4cc(NC(=O)c6cnc7cccnn67)c(N6CCC(CO)CC6)cc4O5)CC3)c21 (stereo partly specified)
Of the two listed items, P and Q , which carries the larger DC50 figure? Please respond with the label that marks your chosen entry.
P
